Test: Plasma pharmacokinetics of volasertib and CD 10899 (HPLC-MS/MS)
Assay type: in vivo, human
Conditions: human, plasma, intravenous, volasertib combined with carboplatin; n = 28; read-out: t1/2 (terminal half-life), gMean (converted)
Procedure: Blood was collected at specified time points during the first and second cycles of each treatment schedule for pharmacokinetic analyses to determine the plasma concentration of volasertib and/or total platinum. […] The plasma concentrations in cycle 2 were determined before the start of platinum infusions (–1 hour 35 minutes), shortly before end of platinum infusion (–30 minutes), and immediately before the end of volasertib infusion (2 hours). […]
parameter.measured: half-life

molecule="CC[C@@H]1C(=O)N(C)c2cnc(Nc3ccc(C(=O)N[C@H]4CC[C@H](N5CCN(CC6CC6)CC5)CC4)cc3OC)nc2N1C(C)C [Volasertib]" reported_measurement="6.92 days"
